System: Con-NCI-H82 cell
Assay: CellTiter-Glo cell viability, Con-NCI-H82 cell (empty-vector control)
Format: cell-based, human
Details: Homo sapiens, NCI-H82, NCI-H82 transfected with empty virus vector (control), intracellular ATP, read-out: inhibitory effect on Con-NCI-H82 (IC50)
experimental-readout: pIC50
Conceptually, pIC50 converts a concentration in mol/L into minus its log10.

Before answering, review these 10 worked examples.
{"compound": "CCC1=C2c3cc4c(cc3CCN2C(C(Cl)(Cl)Cl)c2c1ccc(OC)c2OC)OCO4 (centres unmarked)", "pIC50": 5.70}
{"compound": "CCC1=C2c3cc4c(cc3CCN2C(C(Cl)(Cl)Cl)c2c1ccc1c2OCO1)OCO4 (centres unmarked)", "pIC50": 4.73}
{"compound": "CCOc1c(OC)ccc2c1C(C(Cl)(Cl)Cl)N1CCc3cc4c(cc3C1=C2)OCO4 (centres unmarked)", "pIC50": 5.67}
{"compound": "COc1ccc2c(c1OC(=O)CC13CC4CC(CC(C4)C1)C3)C(C)N1CCc3cc4c(cc3C1=C2)OCO4 (centres unmarked)", "pIC50": 5.88}
{"compound": "COc1ccc2c(c1OCCCCl)C(C1CCCCC1)N1CCc3cc4c(cc3C1=C2)OCO4 (centres unmarked)", "pIC50": 5.65}
{"compound": "COc1ccc2c(c1OCc1ccccc1-c1ccccc1)C(C(Cl)(Cl)Cl)N1CCc3cc4c(cc3C1=C2)OCO4 (centres unmarked)", "pIC50": 6.04}
{"compound": "COc1ccc2c(c1OCCN1CCCCC1)C(C)N1CCc3cc4c(cc3C1=C2)OCO4 (centres unmarked)", "pIC50": 4.69}
{"compound": "COc1ccc2c(c1OCCNC(=O)OC(C)(C)C)C(C(Cl)(Cl)Cl)N1CCc3cc4c(cc3C1=C2)OCO4 (centres unmarked)", "pIC50": 5.64}
{"compound": "COc1ccc2c(c1OC)C(C1CCCCC1=O)N1CCc3cc4c(cc3C1=C2)OCO4 (centres unmarked)", "pIC50": 5.41}
{"compound": "COc1ccc2c(c1OCCN1CCCCC1)C(C(Cl)(Cl)Cl)N1CCc3cc4c(cc3C1=C2)OCO4 (centres unmarked)", "pIC50": 5.30}

pIC50 in this record for COc1c(OCCCCl)ccc2c1C(C1CCCC1)N1CCc3cc4c(cc3C1=C2)OCO4 (centres unmarked) : 5.88

Please fill in: pIC50 reported for `C1=C2c3cc4c(cc3CCN2Cc2cc3c(cc21)OCO3)OCO4` = 6.35

Lab note: measured pIC50 of CCCCCCC1=C2c3cc4c(cc3CCN2C(C2CCCC2)c2c1ccc(OC)c2OC)OCO4 (centres unmarked) was 6.09

GET /value?item= `COc1ccc2c(c1N1CCCCCC1)CN1CCc3cc4c(cc3C1=C2)OCO4` &field=pIC50 returns 6.54

For this compound ( CCCCCOc1c(OC)ccc2c1C(C(Cl)(Cl)Cl)N1CCc3cc4c(cc3C1=C2)OCO4 (centres unmarked) ), measured pIC50 is 6.28

The recorded pIC50 for `COc1ccc2c(c1OC)CN1CCc3cc4c(cc3C1=C2)OCCO4` is 6.04

pIC50 reading for CCCCCCC1c2c(ccc3c2OCO3)C=C2c3cc4c(cc3CCN21)OCO4 (centres unmarked) : 6.34
